Reference source for all entries: PubChem BioAssay (NCI)

# measurementDescription: NCI Yeast Anticancer Drug Screen. Data for the bub3 strain (AID 167)
# assayContext: S. cerevisiae bub3 mutant strain, at 50.0 µM
The panel holds about 79,000 compounds, 15% with a hit somewhere; the sample as a whole holds those more often. Activity calls are given as the source filed them. Rule as the data show it: active = growth inhibition above about 70%; inactive = the rest.
Write down one outcome, taken from yes for active, no for inactive

• Cc1c(N2CCCC2)cc2c(c1NC(=O)c1ccccc1Cl)C(C)(C)CC2(C)C = yes

Input line: Tell me the assay call for CC1(c2ccc(Cl)cc2)OC(=O)C(=Cc2ccc([N+](=O)[O-])s2)C(=O)O1 (stereo not given) please.
Output line: yes

Input line: Tell me the assay call for COc1ccc2c(c1)CN([C@@H](C)[C@H]1CC[C@H]3[C@@H]4CC[C@H]5C[C@@H](O)CC[C@]5(C)[C@H]4CC[C@]13C)CO2 please.
Output line: yes

Input line: Tell me the assay call for Cc1ccc(Oc2ccc(C(=O)C(CN(C)C)CN(C)C)cc2)cc1 please.
Output line: yes
